Assay: Microsomal Stability Assay, human liver microsomes
Type: in vitro ADME
Settings: human liver microsomes, 60 min
valueKind: Microsomal Stability Human % rem. 60 min

Look up and report measured Microsomal Stability Human % rem. 60 min for this entry: `c1cnc2cc(N3CCOCC3)nc(O[C@H]3CC[C@@H](Nc4ncc(OCCN5CCNCC5)cn4)CC3)c2c1`
F (% remaining = 25-50%)

Indicate its recorded Microsomal Stability Human % rem. 60 min; the compound in question is `CN1CCN(CCOc2cnc(N[C@H]3CC[C@@H](Oc4nc(N5CCOCC5)cc5ncccc45)CC3)nc2)CC1`
G (% remaining = 50-75%)

Note down Microsomal Stability Human % rem. 60 min recorded for `O=C(COc1cnc(N[C@H]2CC[C@@H](Oc3nc(N4CCOCC4)cc4ncccc34)CC2)nc1)N1CCC1`
F (% remaining = 25-50%)

Give recorded Microsomal Stability Human % rem. 60 min. `CN(C)C(=O)Cn1ccc2nc(N[C@H]3CC[C@@H](Oc4nc(N5CCOCC5)cc5ncccc45)CC3)ncc21`
G (% remaining = 50-75%)

====

Target: DNA-PK phosphorylation at Serine 2056 (Homo sapiens, UniProt P78527)
Construct: FaDu cells were purchased from ATCC; host or cells: FaDu
Test: Cellular Assay for Inhibition of DNA-PK Phosphorylation at Serine 2056 in FaDu cells (sandwich ELISA, neocarzinostatin)
Format: cell-based
Conditions: pSer2056 DNA-PK, Table 3
Here the recorded IC50 is given for each entry.

Consider the worked cases shown below.
State recorded IC50 with DNA-PK phosphorylation at Serine 2056 (Homo sapiens, UniProt P78527), entry CC(c1cnn(C)c1[N+](=O)[O-])N(c1cnc2cc(N3CCOCC3)nc(OC3CCC(Nc4ccn5nccc5n4)CC3)c2c1)S(C)(=O)=O (stereo not shown) , no comment.
1 to 10 µM

Specify the recorded IC50 for `CS(=O)(=O)Nc1cnc2cc(N3CCOCC3)nc(O[C@H]3CC[C@@H](Nc4ncc5c(n4)CCNC5)CC3)c2c1` , system: DNA-PK phosphorylation at Serine 2056 (Homo sapiens, UniProt P78527).
0.1 to 1 µM

Provide IC50, recorded with DNA-PK phosphorylation at Serine 2056 (Homo sapiens, UniProt P78527), of `Cn1c(COc2cnc3cc(N4CCOCC4)nc(O[C@H]4CC[C@@H](c5cnccn5)CC4)c3c2)cnc1[N+](=O)[O-]`
10 to 30 µM

Fetch value of IC50 on DNA-PK phosphorylation at Serine 2056 (Homo sapiens, UniProt P78527) for CC(c1cnc([N+](=O)[O-])n1C1CC1)N(c1cnc2cc(N3CCOCC3)nc(OC3CCC(Nc4ccn5nccc5n4)CC3)c2c1)S(C)(=O)=O (stereo not shown) .
10 to 30 µM

Name the recorded IC50 of CC(c1cnn(C)c1[N+](=O)[O-])N(c1cnc2cc(N3CCOCC3)nc(O[C@H]3CC[C@@H](Nc4ncc(OC5CCN(C)C5)cn4)CC3)c2c1)S(C)(=O)=O (stereo partly shown) , assay system DNA-PK phosphorylation at Serine 2056 (Homo sapiens, UniProt P78527).
1 to 10 µM

For DNA-PK phosphorylation at Serine 2056 (Homo sapiens, UniProt P78527), give IC50 of the listed molecule: `Cn1c(COc2cnc3cc(N4CCOCC4)nc(O[C@H]4CC[C@@H](Nc5cncc(C(F)(F)F)n5)CC4)c3c2)cnc1[N+](=O)[O-]`
10 to 30 µM

# lookup: DNA-PK phosphorylation at Serine 2056 (Homo sapiens, UniProt P78527) IC50, key = CC(c1cnc([N+](=O)[O-])n1C)N(c1cnc2cc(N3CCOCC3)nc(O[C@H]3CC[C@@H](Nc4cncc(C(F)(F)F)n4)CC3)c2c1)S(C)(=O)=O (stereo partly shown)
1 to 10 µM

Provide IC50, recorded with DNA-PK phosphorylation at Serine 2056 (Homo sapiens, UniProt P78527), of CC(c1cnc([N+](=O)[O-])n1C)N(c1cnc2cc(N3CCOCC3)nc(O[C@H]3CC[C@@H](Nc4ncc(CN5CCOCC5)cn4)CC3)c2c1)S(C)(=O)=O (stereo partly shown)
10 to 30 µM

Answer with IC50 of CC(c1cnc([N+](=O)[O-])n1C1CC1)N(c1cnc2cc(N3CCOCC3)nc(O[C@H]3CC[C@@H](Nc4ncccn4)CC3)c2c1)S(C)(=O)=O (stereo partly shown) measured for DNA-PK phosphorylation at Serine 2056 (Homo sapiens, UniProt P78527).
1 to 10 µM

// output IC50; input `CS(=O)(=O)Nc1cnc2cc(N3CCOCC3)nc(O[C@H]3CC[C@@H](Nc4cc5c(cn4)CNCC5)CC3)c2c1` ; system DNA-PK phosphorylation at Serine 2056 (Homo sapiens, UniProt P78527)
0.1 to 1 µM

Others:
# return IC50 of `CS(=O)(=O)Nc1cnc2cc(N3CCOCC3)nc(O[C@H]3CC[C@@H](Nc4ncc(CN5CCOCC5)cn4)CC3)c2c1` (system: DNA-PK phosphorylation at Serine 2056 (Homo sapiens, UniProt P78527))
< 0.1 µM

====

Test system: FaDu cell line
Test: Prodrug Activation in Hypoxic Stirred Tumour Cell Suspensions
Conditions: 10 μM, 4 hours, 5% O2
valueKind: Fraction of prodrug converted to active form, Oxic 5% O2

Consider the following illustrative entries.
Report Fraction of prodrug converted to active form, Oxic 5% O2, nothing else, for this compound: CC(c1cnc([N+](=O)[O-])n1C1CC1)N(c1cnc2cc(N3CCOCC3)nc(O[C@H]3CC[C@@H](Nc4ncccn4)CC3)c2c1)S(C)(=O)=O (stereo partly drawn)
D (D is 0 to 0.02)

Look up Fraction of prodrug converted to active form, Oxic 5% O2 of `Cc1nc(N[C@H]2CC[C@@H](Oc3nc(N4CCOCC4)cc4ncc(N(Cc5cnc([N+](=O)[O-])n5C)S(C)(=O)=O)cc34)CC2)ccc1F` and report it.
D (D is 0 to 0.02)

Respond only with Fraction of prodrug converted to active form, Oxic 5% O2 recorded for CC(Oc1cnc2cc(N3CCOCC3)nc(O[C@H]3CC[C@@H](c4cnccn4)CC3)c2c1)c1cnc([N+](=O)[O-])n1C (stereo partly drawn)
B (B is 0.05 to 0.15)

Using known records, supply Fraction of prodrug converted to active form, Oxic 5% O2 for CC(Oc1cnc2cc(N3CCOCC3)nc(O[C@H]3CC[C@@H](N(C)c4ncccn4)CC3)c2c1)c1cnc([N+](=O)[O-])n1C (stereo partly drawn)
B (B is 0.05 to 0.15)

Then this compound:
Return value of Fraction of prodrug converted to active form, Oxic 5% O2 for input `CN1CCN(c2cnc(N[C@H]3CC[C@@H](Oc4nc(N5CCOCC5)cc5ncc(N(Cc6cnn(C)c6[N+](=O)[O-])S(C)(=O)=O)cc45)CC3)nc2)CC1` , no commentary.
B (B is 0.05 to 0.15)

====

Assay: Pharmacokinetic study in mice (IV and PO), plasma
Type: in vivo, mouse
Details: female, C57BL/6; mouse plasma, PO, 10 mg/kg; read-out: AUCINF—obs
valueKind: AUC(0-inf) (ng·h/mL)

(A) CN1CCN(CCOc2cnc(N[C@H]3CC[C@@H](Oc4nc(N5CCOCC5)cc5ncccc45)CC3)nc2)CC1
(B) O=C(COc1cnc(N[C@H]2CC[C@@H](Oc3nc(N4CCOCC4)cc4ncccc34)CC2)nc1)N1CCC1
(C) CN(C)C(=O)Cn1ccc2nc(N[C@H]3CC[C@@H](Oc4nc(N5CCOCC5)cc5ncccc45)CC3)ncc21
Put the compounds in ascending order of AUC(0-inf). Put the labels in the order asked and list them.
C, A, B

====

In this section, each of the compounds is paired with its reported EC50.
Tested on: pDNA-PK induction in HCT116 tumour spheroids
Assay: Multicellular tumour spheroid + radiation, pDNA-PK (ser2056) inhibition, immunohistochemical endpoint, HCT116
Assay type: cell-based
Details: Homo sapiens, HCT-116; 20 Gy, 2 hours following radiation, 20% O2; Example 9 Study 2; read-out: Spheroid Cell line: HCT116 Immunohistochemical endpoint pDNA-PK inhibition EC50

Reference set (2 entries):
Determine from records and report EC50 for `CC(=O)NCCOc1cnc(N[C@H]2CC[C@@H](Oc3nc(N4CCOCC4)cc4ncccc34)CC2)nc1`
1 to 10 µM

Look up and state reported EC50 for `O=S(=O)(Nc1cnc2cc(N3CCOCC3)nc(O[C@H]3CC[C@@H](Nc4ncccn4)CC3)c2c1)C1CC1`
1 to 10 µM

Continuing:
Item `CN(C)C(=O)N[C@H]1CC[C@@H](Oc2nc(N3CCOCC3)cc3ncccc23)CC1` : provide EC50
10 to 100 µM

Could you please provide reported EC50 for `O=C(O)COc1cnc(N[C@H]2CC[C@@H](Oc3nc(N4CCOCC4)cc4ncccc34)CC2)nc1` ? Thanks!
10 to 100 µM

====

Biological target: DNA-PK phosphorylation at Serine 2056 (Homo sapiens)
Construct: FaDu cells were purchased from ATCC; host or cells: FaDu
Assay: Cellular Assay for Inhibition of DNA-PK Phosphorylation at Serine 2056 in FaDu cells (sandwich ELISA, neocarzinostatin)
Type: cell-based
Conditions: pSer2056 DNA-PK, Table 3
The reader will find reported IC50 values listed item by item below.

Output IC50 of COc1cccnc1N[C@H]1CC[C@@H](Oc2nc(N3CCOCC3)cc3ncc(N(Cc4cnc([N+](=O)[O-])n4C)S(C)(=O)=O)cc23)CC1 [LFA2009]
10 to 30 µM

Specify IC50 for CS(=O)(=O)Nc1cnc2cc(N3CCOCC3)nc(O[C@H]3CC[C@@H](Nc4ncc(CCN5CCOCC5)cn4)CC3)c2c1 [LFA2030] and stop.
< 0.1 µM

---
Look up and state reported IC50 for CS(=O)(=O)Nc1cnc2cc(N3CCOCC3)nc(O[C@H]3CC[C@@H](Nc4ncc(N5CCN(CCF)CC5)cn4)CC3)c2c1 [LFA2013]
< 0.1 µM

Return the recorded IC50 value; entry: Cn1c(CN(c2cnc3cc(N4CCOCC4)nc(OC4CCC(Nc5ncc(N6CCN(CC(F)F)CC6)cn5)CC4)c3c2)S(C)(=O)=O)cnc1[N+](=O)[O-] (centres unmarked) [LFA2048]
10 to 30 µM

Return value of IC50 for input CC(c1cnn(C)c1[N+](=O)[O-])N(c1cnc2cc(N3CCOCC3)nc(O[C@H]3CC[C@@H](Nc4ncc(OCCN5CCOCC5)cn4)CC3)c2c1)S(C)(=O)=O (some centres unmarked) [LFA2077] , no commentary.
1 to 10 µM

# return recorded IC50 for entry CN1CCN(CCOc2cnc(N[C@H]3CC[C@@H](Oc4nc(N5CCOCC5)cc5ncc(N(Cc6cnc([N+](=O)[O-])n6C)S(C)(=O)=O)cc45)CC3)nc2)CC1 [LFA2059]
1 to 10 µM

Indicate the recorded IC50 value for this molecule: CC(c1cnc([N+](=O)[O-])n1C)N(c1cnc2cc(N3CCOCC3)nc(OC3CCC(Nc4ncc(N5CCN(CC(F)F)CC5)cn4)CC3)c2c1)S(C)(=O)=O (centres unmarked) [LFA2047]
10 to 30 µM
